Entry source: paper PMC8699473

Long-term stability, 2 month, -20°C Accuracy [%] for assorted compounds
method_notes: Long-term stability in spiked pooled human plasma
condition_info: validation standard ULOV
measurement_kind: Long-term stability, 2 month, -20°C Accuracy [%] (%)

[[record]]
compound = "Cc1nc(Nc2ncc(C(=O)Nc3c(C)cccc3Cl)s2)cc(N2CCN(CCO)CC2)n1"
u = "%"
observed_result = 95.6

[[record]]
compound = "NC(=O)c1cccc2cn(-c3ccc([C@@H]4CCCNC4)cc3)nc12"
u = "%"
observed_result = 103.3

[[record]]
compound = "COc1cc2nccc(Oc3ccc(NC(=O)C4(C(=O)Nc5ccc(F)cc5)CC4)cc3)c2cc1OC [Cabozantinib]"
u = "%"
observed_result = 99.6

[[record]]
compound = "COc1cc2c(Nc3ccc(Br)cc3F)ncnc2cc1OCC1CCN(C)CC1"
u = "%"
observed_result = 98.6

[[record]]
compound = "Cc1ccc(Nc2nccc(N(C)c3ccc4c(C)n(C)nc4c3)n2)cc1S(N)(=O)=O"
u = "%"
observed_result = 98.8

[[record]]
compound = "Cn1cnc2c(F)c(Nc3ccc(Br)cc3F)c(C(=O)NOCCO)cc21"
u = "%"
observed_result = 99.2

[[record]]
compound = "O=c1[nH]c(=O)n([C@H]2C[C@H](O)[C@@H](CO)O2)cc1C(F)(F)F"
u = "%"
observed_result = 98.4

[[record]]
compound = "CCN(CC)CCNC(=O)c1c(C)[nH]c(/C=C2\\C(=O)Nc3ccc(F)cc32)c1C"
u = "%"
observed_result = 109.7

[[record]]
compound = "O=C1CN2Cc3c(ccc(Cl)c3Cl)N=C2N1 [Anagrelide]"
u = "%"
observed_result = 94.5

[[record]]
compound = "CC1(C)CCC(CN2CCN(c3ccc(C(=O)NS(=O)(=O)c4ccc(NCC5CCOCC5)c([N+](=O)[O-])c4)c(Oc4cnc5[nH]ccc5c4)c3)CC2)=C(c2ccc(Cl)cc2)C1"
u = "%"
observed_result = 112.4

[[record]]
compound = "CNC(=O)c1cc(Oc2ccc(NC(=O)Nc3ccc(Cl)c(C(F)(F)F)c3)cc2)ccn1"
u = "%"
observed_result = 116.0

[[record]]
compound = "COc1cc2nccc(Oc3ccc(NC(=O)Nc4cc(C)on4)c(Cl)c3)c2cc1OC"
u = "%"
observed_result = 100.9

[[record]]
compound = "CNC(=O)c1ccc(N2C(=S)N(c3cnc(C#N)c(C(F)(F)F)c3)C(=O)C23CCC3)cc1F [Apalutamide]"
u = "%"
observed_result = 88.9

[[record]]
compound = "COc1cc(N2CCC(N3CCN(C)CC3)CC2)ccc1Nc1ncc(Cl)c(Nc2ccccc2P(C)(C)=O)n1"
u = "%"
observed_result = 105.8

[[record]]
compound = "Cc1c(C(=O)Nc2ccc(N3C[C@@H](C)O[C@@H](C)C3)nc2)cccc1-c1ccc(OC(F)(F)F)cc1"
u = "%"
observed_result = 122.3

[[record]]
compound = "COC(=O)c1ccc2c(c1)NC(=O)/C2=C(\\Nc1ccc(N(C)C(=O)CN2CCN(C)CC2)cc1)c1ccccc1"
u = "%"
observed_result = 97.0

